# Tested on: crop plants (cereal)
# assayName: Container trials with cereal in the greenhouse, mefenpyr 1 day prior to herbicide application (Example B, use of safeners)
# Type: in vivo
# conditionDescription: 10 days after application; 100 g of a.i./ha; without safener
So I've got a bunch of compounds here, and I need their Summer wheat observed (%) values.
Write it as a number; the unit % goes unstated.

Summer wheat observed (%) of CCc1cc(C)cc(CC)c1C1=C(OC(=O)C(C)(C)C)[C@H]2CCCC[C@H]2C1=O (relative stereo) on crop plants (cereal)? 65

Reported Summer wheat observed (%) for crop plants (cereal), given CCc1cc(CC)c(C2=C(OC(=O)COC)C3CCCCC3C2=O)c(CC)c1 (centres unmarked) ? 50

Query the reported Summer wheat observed (%) for crop plants (cereal); item: CCC(=O)OC1=C(c2c(CC)cc(C)cc2CC)C(=O)C2CCCCC12 (centres unmarked) 40

Missing value: Summer wheat observed (%), crop plants (cereal), entry CCc1cc(C)cc(C)c1C1=C(OC(=O)C(C)C)C2CCCCC2C1=O (centres unmarked) . Fill in? 60

Find the measured Summer wheat observed (%): item CCc1cc(CC)c(C2=C(O)C3CCCCC3C2=O)c(CC)c1 (centres unmarked) , target or system crop plants (cereal). 30

====

# Test system: crop plants (cereal)
# assayName: Container trials with cereal in the greenhouse, mefenpyr 1 day prior to herbicide application (Example B, use of safeners)
# Type: in vivo
# conditionDescription: 28 days after application; 12.5 g of a.i./ha; without safener
Field: Summer wheat observed (%). Provide a value for each of the compounds that follow.
Mention the unit after the number when you answer.

Bench note: what Summer wheat observed (%) did CCc1cc(C)cc(C)c1C1C(=O)[C@H]2CCCC[C@@H]2C1=O show? 10%

Which Summer wheat observed (%) value is on record for CCC(=O)OC1=C(c2c(C)cc(C)cc2CC)C(=O)C2CCCCC12 (stereo not drawn) ? 20%

Give its Summer wheat observed (%) value. Item: CCOC(=O)OC1=C(c2c(C)cc(C)cc2CC)C(=O)C2CCCCC12 (stereo not drawn) 10%

Entry CCOC(=O)OC1=C(c2c(CC)cc(C)cc2CC)C(=O)C2CCCCC12 (stereo not drawn) : reported Summer wheat observed (%) = ? 10%

Dear colleague, I am looking for the recorded Summer wheat observed (%) of the following compound: CCc1cc(C)cc(CC)c1C1=C(OC(=O)OC)C2CCCCC2C1=O (stereo not drawn) 20%

Given the entry CCc1cc(C)cc(C)c1C1=C(OC(=O)COC)C2CCCCC2C1=O (stereo not drawn) [I-b-13] , report its measured Summer wheat observed (%). 20%

Recorded Summer wheat observed (%) of CCc1cc(C)cc(CC)c1C1=C(OC(=O)C(C)C)[C@H]2CCCC[C@@H]2C1=O (relative stereo) , please. 10%

State the recorded Summer wheat observed (%) for this entry: CCc1cc(C)cc(C)c1C1=C(OC(=O)COC)C2CCCCC2C1=O (stereo not drawn) [I-b-15] 10%

Entry under review: CCc1cc(C)cc(CC)c1C1=C(OC(=O)COC)[C@H]2CCCC[C@@H]2C1=O (relative stereo) . Reported Summer wheat observed (%)? 10%
